Molecular target: Shiga toxin 2 (Escherichia coli O157:H7) (UniProt P09385+P09386)
Assay: E. coli 0.157:H7 Shiga Toxin SOP - stx2 screening assay
Assay type: functional
Parameters: scale not given: direction of the effect not stated beside the values
Settings: 30 µM
Value Type: Percent Effect (%)
Numbers only, in %.

Here's what some known entries look like.
Cc1nc(O)c2nnn(C[C@H]3CCCN3C(=O)CCC3CCCC3)c2n1
13
COc1ccc(C(C)N2CCN(Cc3nccn3C)CC2)cc1Cl (centres undefined)
16
Nc1nc2nc(C3CCCN(C(=O)c4cscn4)C3)ccc2s1 (centres undefined)
-35.5
Cc1nc(CN2CCC(N(C)Cc3noc(C(C)C)n3)C2)cs1 (centres undefined)
-23.4

Provide Percent Effect for all items below, preserving their order.
1. NCC(=O)N1CCCC(c2cncc(Nc3ncccn3)n2)C1 (centres undefined)
2. NC(=O)c1cc(NC(=O)NCCc2cc(F)cc(F)c2)ccc1F
3. CCOC(=O)[C@]12CCCN(Cc3nccs3)C[C@H]1CN(C(C)=O)C2
4. O=C(C1CCCc2[nH]ncc21)N1CCCC1 (centres undefined)
5. Cc1nc(CN2C[C@@H]3CN(C(=O)c4ccnnc4)C[C@@H]3C2=O)cs1
6. Cn1cnc2c1C(COCC1CC1)CN(Cc1ccc3c(c1)OCO3)C2 (centres undefined)
7. Fc1cnc(N2C[C@H]3CCC[C@@]3(COc3ccccn3)C2)nc1
8. CN(C)c1ccc(CCNC(=O)NCc2ccc(N(C)C)nc2)cc1

A.
1. 1.91
2. -82
3. -5.93
4. -4.59
5. -1.02
6. -23.1
7. 2.51
8. 5.6

I would be grateful if you could provide Percent Effect for each of the following entries.
1. CCN(Cc1ccco1)C(=O)c1cc(OC)c2c(c1)OCCO2
2. Cc1n[nH]c2c1C(c1ccc(O)c(Cl)c1)SCC(=O)N2 (centres undefined)

A.
[-2.41, -29.6]

---

Target: Aspartate--tRNA(Asp/Asn) ligase (Mycobacterium tuberculosis (strain ATCC 25618 / H37Rv)) (UniProt P9WFW3); further: in the data most compounds retested in dose-response had high values
Sequence (P9WFW3 whole entry): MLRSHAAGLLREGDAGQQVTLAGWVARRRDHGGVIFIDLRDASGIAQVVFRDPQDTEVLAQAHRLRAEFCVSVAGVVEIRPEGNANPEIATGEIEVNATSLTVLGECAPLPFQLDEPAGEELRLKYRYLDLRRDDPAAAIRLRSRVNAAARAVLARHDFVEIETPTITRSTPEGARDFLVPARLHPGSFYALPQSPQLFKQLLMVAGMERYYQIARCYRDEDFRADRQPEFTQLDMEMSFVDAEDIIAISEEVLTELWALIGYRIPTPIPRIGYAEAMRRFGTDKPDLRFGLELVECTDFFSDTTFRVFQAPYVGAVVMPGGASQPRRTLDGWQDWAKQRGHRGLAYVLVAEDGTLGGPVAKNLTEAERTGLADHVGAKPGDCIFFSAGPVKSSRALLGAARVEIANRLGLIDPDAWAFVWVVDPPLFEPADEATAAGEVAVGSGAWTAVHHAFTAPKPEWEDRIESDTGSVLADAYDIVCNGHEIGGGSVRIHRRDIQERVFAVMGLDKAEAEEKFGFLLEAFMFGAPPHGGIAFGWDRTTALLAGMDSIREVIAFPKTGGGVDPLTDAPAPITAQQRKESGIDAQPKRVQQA
Experiment: Assay for Asp RNA synthetase-1 from Mycobacterium tuberculosis
Type: functional
Design: scale not given: direction of the effect not stated beside the values
Settings: 30 µM
Value Type: Percent Effect (%)
One number for each entry, in %.

Worked examples, 6 compounds total:
Cc1ccc(N2CC[C@H](OCC3CC3)[C@@H]2Cc2cnn(C)c2)nn1
2.69
O=C(c1ccc(-n2cccn2)nc1)N1CCC(Nc2cccnn2)CC1
-2.94
Cc1nc(C2(NCC(=O)NC(=O)NCc3cccs3)CCCCC2)no1
-4.16
O=C(c1cccc2c1OCO2)N1CCCC(n2cccn2)C1 (stereo not drawn)
-0.706
Cc1cc(CN(C)C(=O)c2cc3c([nH]c2=O)CCCC3=O)no1
2.54
Cn1ccc(C(=O)NC2CCC23CCN(C(=O)c2ccncc2)CC3)c1 (stereo not drawn)
0.319

List Percent Effect for every entry below, keeping the order given.
1. O=C(c1cscn1)N1C[C@H]2CCCC(OCc3cccnc3)[C@H]2C1 (stereo partly drawn)
2. COc1ccccc1C1(C(=O)NCCN2CCOCC2)CCOCC1

A.
1. 6.49
2. 10.8

---

Target: Protein translocase subunit SecA (Escherichia coli (strain K12)) (UniProt P10408)
Sequence (P10408 whole entry): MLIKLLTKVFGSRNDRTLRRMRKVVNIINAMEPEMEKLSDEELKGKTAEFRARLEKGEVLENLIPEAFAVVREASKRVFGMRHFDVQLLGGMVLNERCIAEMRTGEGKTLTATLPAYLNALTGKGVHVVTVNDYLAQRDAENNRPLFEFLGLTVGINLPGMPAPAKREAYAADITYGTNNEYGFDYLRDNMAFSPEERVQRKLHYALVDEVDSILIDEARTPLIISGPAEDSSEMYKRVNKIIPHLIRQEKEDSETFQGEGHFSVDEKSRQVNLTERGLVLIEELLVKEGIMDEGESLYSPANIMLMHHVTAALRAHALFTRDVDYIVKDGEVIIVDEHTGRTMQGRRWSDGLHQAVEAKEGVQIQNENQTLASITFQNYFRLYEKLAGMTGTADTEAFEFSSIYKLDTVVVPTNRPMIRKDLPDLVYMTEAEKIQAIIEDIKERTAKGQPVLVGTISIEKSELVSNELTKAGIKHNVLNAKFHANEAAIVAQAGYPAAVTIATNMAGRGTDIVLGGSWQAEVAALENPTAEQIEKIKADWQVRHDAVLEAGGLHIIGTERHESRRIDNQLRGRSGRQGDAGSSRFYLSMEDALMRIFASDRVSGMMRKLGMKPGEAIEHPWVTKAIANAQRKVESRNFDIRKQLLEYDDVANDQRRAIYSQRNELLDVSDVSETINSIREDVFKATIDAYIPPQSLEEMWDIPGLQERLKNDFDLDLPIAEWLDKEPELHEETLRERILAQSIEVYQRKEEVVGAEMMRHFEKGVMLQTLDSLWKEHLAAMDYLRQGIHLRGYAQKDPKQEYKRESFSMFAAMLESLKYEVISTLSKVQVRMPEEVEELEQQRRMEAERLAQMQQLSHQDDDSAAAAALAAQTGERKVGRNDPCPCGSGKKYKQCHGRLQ
Assay: Assay to Identify E. coli SecA ATPase Inhibitors
Type: functional
Parameters: scale not given: direction of the effect not stated beside the values
Conditions: 30 µM
Potency and affinity values are given separately.
Provide the recorded Percent Effect for the entries that follow.
Give bare numbers, in %.

Here is how some compounds turned out for Percent Effect.
COCc1cncc2c1CCN(Cc1ccccn1)C2
-5.11
CCOCC(O)CN1CCN(C(=O)Cc2ccc(C)nc2)CC1 (configuration not stated)
-0.896
COCCN1C[C@@H]2[C@@H](OC)CCN(Cc3cccc(C)n3)[C@@H]2C1
-1.97
Cc1ccc(CN2CCC3(CC2)C(=O)N(C)c2ccccc23)s1
-4.09
Cc1noc(C)c1CN1CCOC2(CCCN(c3nccs3)C2)C1 (configuration not stated)
-8.9
O=C(Cc1ccc(F)cc1)N1CCN(CC(O)C2CC2)CC1 (configuration not stated)
-9.94
CNCCc1nc2cc(Cl)ccc2[nH]1
-7.19
Cn1ccnc1CN1CCC2(CC(=O)N(c3cncnc3)C2)C1 (configuration not stated)
-1.68

Below is a list of compounds. For each, state its recorded Percent Effect.
1. Cc1c(CC(=O)N2CCN(CC(F)(F)F)CC2)nnn1-c1ccccc1
2. O=C1C[C@H]2[C@H](CCN2Cc2ccccn2)N1CC1CC1
3. c1cc(CO[C@@H]2CC[C@H]3[C@H]2OCCN3Cc2ccoc2)ccn1
4. Cc1cc(CN2CC[C@H]3C[C@H](C)O[C@@H]3C2)no1
5. COc1ccc(C(=O)C2CCCN(Cc3ccc(C)o3)C2)c(OC)c1 (configuration not stated)

A.
[-3.34, -3.35, -1.76, -1.91, -3.9]

Would you be so kind as to report Percent Effect for each listed record?
1. CC(C)NC(=O)[C@H]1C[C@@H]2[C@@H](C1)OCCN2Cc1cccnc1
2. Cc1ccc(N2CCO[C@H]3CN(Cc4cnn(C)c4)C[C@H]32)nn1
3. CC(C)=CCN1C(=O)[C@H]2CC[C@@H]1CN(Cc1cccnc1N)C2
4. O=C(NC[C@]12COC[C@H]1CN(Cc1ccncc1)C2)c1ccco1

A.
1.37
-2.13
5.73
-2.11
